Tested on: U251 CNS
TEST_SUMMARY: NCI tumour cell line growth inhibition, 48 h
Parameter TGI: see the listing below.

The cases that follow already have their TGI on record.
                                   compound       val
0  CCCOC(=O)C1CCC(=O)N1C(=O)C(C)Cl (stereo not given)  > 100 µM
1  Cc1cc(Cl)cc2c(N=Nc3ccccc3[N+](=O)[O-])c(O)[nH]c12  > 100 µM
2                Cc1noc2cccc(OCc3ccccc3)c12  > 100 µM

Which TGI is listed for O=C(O)C1=CCCc2ccc3ccccc3c21 ?
> 100 µM

How about this compound: CC1=NNC(=O)C1C1CC(c2c[nH]c3ccccc23)=NNC1=S (stereo not given)
> 100 µM

How about this compound: CCOc1ccc(NC(=O)C(=O)NO)cc1
> 100 µM

How about this compound: O=C(Nc1ccccc1)c1nn(-c2cc(S(=O)(=O)O)c([N+](=O)[O-])cc2Cl)[n+](-c2cc(S(=O)(=O)[O-])c([N+](=O)[O-])cc2Cl)n1
> 100 µM

* * *

System: UACC-257 melanoma
TEST_SUMMARY: NCI tumour cell line growth inhibition, 48 h
Parameter GI50: see the listing below.

>>> df
                                   compound      val
0   N=C(N)c1ccc(OCCOCCOc2ccc(C(=N)N)cc2)cc1  38.3 µM
1     CCCCOc1ccc(NC(=O)n2nc(N)c3ccccc32)cc1  24.8 µM
2  Cc1cc(NCCCNc2ccnc3cc(Cl)ccc23)nc(N2CCN(C)CC2)n1   1.8 µM
3  CC/C(=C(/c1ccc(OCCN(C)C)cc1)c1ccc(OC(=O)CCC(=O)c2c(C)[nH]c(/C=C3\N=C(c4ccc[nH]4)C=C3OC)c2C)cc1)c1ccccc1  3.38 µM
4  CCOC(=O)c1sc2ncn(Cc3cccc(Br)c3)c(=O)c2c1C  21.1 µM
5      O=c1cc(-c2ccccc2)oc2cc(O)c(O)c(O)c12    39 µM

// next entry
Reported GI50 for UACC-257 melanoma, given CN(Cc1ccc(Cl)cc1)c1ccc(CO)c(Cl)c1 ?
0.515 µM

* * *

Test system: A549 NSCLC
TEST_SUMMARY: NCI tumour cell line growth inhibition, 48 h; in the data active = GI50 below about 0.43 µM; inactive = the rest
Write down the outcome that applies. Available outcomes: yes (1) (active), no (0) (inactive)

Use the examples below as a reference point.
>>> df
                                smiles_data  class_name
0  N/C(=C\C(=O)n1nc(-c2ccccc2)cc1N)c1ccccc1      no (0)
1      O=S(=O)(Cc1ccc(Cl)cc1Cl)c1ccc(Cl)cc1      no (0)
2  CC(C)[C@H]1CC[C@H]2[C@@H](CC[C@H]3[C@](C)(CN)CCC[C@]23C)C1      no (0)
3  N#Cc1cccc(OCc2nc(N)nc(N)c2-c2ccc(Cl)c(Cl)c2)c1     yes (1)
4  Cn1cc(C2=C(c3cccc(N)c3)C(=O)NC2=O)c2ccccc21      no (0)

Now consider a different molecule.
For COc1cc(-n2cc(-c3ccc(F)cc3)nc2SCc2ccccc2)cc(OC)c1OC , which call appears in the assay record?
no (0)

Recorded values, source PubChem BioAssay (NCI).
